system: mRNA; assay: mRNA encapsulation (modified Quant-iT RiboGreen assay); format: physicochemical; conditions: RiboGreen, without vs with Triton X-100
Starred links: 1 amine or outer side, 2 acyl side, 3 side chain; linkers in the order of their positions; H or OH if unused. Non-standard residues stand in square brackets, D forms with d. Residues, ends and D or L forms follow the SMILES beside them. *: point of attachment. N(3-lauroyloxypropyl)Gly = CCCCCCCCCCCC(=O)OCCCNCC(=O)O; N(2-decanoyloxyethyl)Gly = CCCCCCCCCC(=O)OCCNCC(=O)O; Gly(N-(CH2)3O-octanoyl) = CCCCCCCC(=O)OCCCNCC(=O)O; Gly(N-3-morpholinopropyl) = O=C(O)CNCCCN1CCOCC1; N(2-ethylhexyl)Gly = CCCCC(CC)CNCC(=O)O; X1 = CCCCC(CC)CSSCCN(CC(=O)[*:2])[*:1]; X3 = CCCCCCCCSSCCN(CC(=O)[*:2])[*:1]; N(CH(CH2OH)2)Gly = O=C(O)CNC(CO)CO; NDecylGly = CCCCCCCCCCNCC(=O)O; For = O=C*
PROPERTY_LABEL: mean percent encapsulation of RNA (%)
Field: numeric (%). Do not append units.

COMPOUND	mean percent encapsulation of RNA (%)
CCCCCCCCCCCC(=O)OCCCN(CC(N)=O)C(=O)CN(CC(CC)CCCC)C(=O)CN(CCCCCCCCCC)C(=O)CN(CC(CC)CCCC)C(=O)CN(CCCOC(=O)CCCCCCCCCCC)C(=O)CN(CC(CC)CCCC)C(=O)CNC(CO)CO (stereo not shown) [Compound 59] (H-[N(CH(CH2OH)2)Gly][N(2-ethylhexyl)Gly][N(3-lauroyloxypropyl)Gly][N(2-ethylhexyl)Gly][NDecylGly][N(2-ethylhexyl)Gly][N(3-lauroyloxypropyl)Gly]-NH2)	95.2
CCCCCCCC(=O)OCCCN(CC(=O)N(CCCOC(=O)CCCCCCC)CC(=O)N(CCSSCC(CC)CCCC)CC(=O)N(CCCOC(=O)CCCCCCC)CC(=O)N(CCCOC(=O)CCCCCCC)CC(=O)N(CCSSCC(CC)CCCC)CC(N)=O)C(=O)CNC(CO)CO (stereo not shown) [Compound 128] (H-[N(CH(CH2OH)2)Gly][Gly(N-(CH2)3O-octanoyl)][Gly(N-(CH2)3O-octanoyl)][X1][Gly(N-(CH2)3O-octanoyl)][Gly(N-(CH2)3O-octanoyl)][X1]-NH2)	89.5
CCCCCCCCCC(=O)OCCN(CC(=O)N(CCOC(=O)CCCCCCCCC)CC(=O)N(CC(=O)N(CCOC(=O)CCCCCCCCC)CC(=O)N(CCOC(=O)CCCCCCCCC)CC(=O)N(CC(N)=O)CC(CC)CCCC)CC(CC)CCCC)C(=O)CNC(CO)CO (stereo not shown) [Compound 16] (H-[N(CH(CH2OH)2)Gly][N(2-decanoyloxyethyl)Gly][N(2-decanoyloxyethyl)Gly][N(2-ethylhexyl)Gly][N(2-decanoyloxyethyl)Gly][N(2-decanoyloxyethyl)Gly][N(2-ethylhexyl)Gly]-NH2)	55.7

Okay, now this compound:
Task item: Give me measured mean percent encapsulation of RNA, please, for this compound: CCCCCCCCSSCCN(CC(=O)N(CCCN1CCOCC1)CC(=O)N(CCSSCCCCCCCC)CC(=O)N(CCCOC(=O)CCCCCCC)CC(=O)N(CCCOC(=O)CCCCCCC)CC(N)=O)C(=O)CN(CCCOC(=O)CCCCCCC)C(=O)CN(C=O)CCCOC(=O)CCCCCCC [Compound 134] (For-[Gly(N-(CH2)3O-octanoyl)][Gly(N-(CH2)3O-octanoyl)][X3][Gly(N-3-morpholinopropyl)][X3][Gly(N-(CH2)3O-octanoyl)][Gly(N-(CH2)3O-octanoyl)]-NH2)
Reply: 83.7

###

assay: Delivery vehicle size and polydispersity by dynamic light scattering; type: physicochemical; details: DLS in PBS; peptoid:DSPC:Cholesterol:DMG-PEG2000 weight ratio 20:1.79:7.16:1.84, mRNA
Non-standard residues stand in square brackets, D forms with d. Residues, ends and D or L forms follow the SMILES beside them. Gly(N-(3-decanoyloxypropyl)) = CCCCCCCCCC(=O)OCCCNCC(=O)O; N(2-decanoyloxyethyl)Gly = CCCCCCCCCC(=O)OCCNCC(=O)O; N(2-ethylhexyl)Gly = CCCCC(CC)CNCC(=O)O; N(CH(CH2OH)2)Gly = O=C(O)CNC(CO)CO
The compounds listed here are annotated with their PDI.
Reply briefly: the number, and no unit.

COMPOUND	PROPERTY_LABEL	REPORTED
CCCCCCCCCC(=O)OCCCN(CC(N)=O)C(=O)CN(CCCOC(=O)CCCCCCCCC)C(=O)CN(CC(CC)CCCC)C(=O)CN(CCCOC(=O)CCCCCCCCC)C(=O)CN(CCCOC(=O)CCCCCCCCC)C(=O)CN(CC(CC)CCCC)C(=O)CNC(CO)CO (centres unmarked) [Compound 102] (H-[N(CH(CH2OH)2)Gly][N(2-ethylhexyl)Gly][Gly(N-(3-decanoyloxypropyl))][Gly(N-(3-decanoyloxypropyl))][N(2-ethylhexyl)Gly][Gly(N-(3-decanoyloxypropyl))][Gly(N-(3-decanoyloxypropyl))]-NH2)	PDI	0.123

Attention now shifts to the item below.
Task item: Determine its reported PDI: CCCCCCCCCC(=O)OCCN(CC(N)=O)C(=O)CN(CC(CC)CCCC)C(=O)CN(CCOC(=O)CCCCCCCCC)C(=O)CN(CCOC(=O)CCCCCCCCC)C(=O)CN(CC(CC)CCCC)C(=O)CN(CCOC(=O)CCCCCCCCC)C(=O)CNC(CO)CO (centres unmarked) [Compound 56] (H-[N(CH(CH2OH)2)Gly][N(2-decanoyloxyethyl)Gly][N(2-ethylhexyl)Gly][N(2-decanoyloxyethyl)Gly][N(2-decanoyloxyethyl)Gly][N(2-ethylhexyl)Gly][N(2-decanoyloxyethyl)Gly]-NH2)
Reply: 0.234

###

system: mRNA; assay: mRNA encapsulation (modified Quant-iT RiboGreen assay); type: physicochemical; details: RiboGreen, without vs with Triton X-100
Starred links: 1 amine or outer side, 2 acyl side, 3 side chain; linkers in the order of their positions; H or OH if unused. Non-standard residues stand in square brackets, D forms with d. Residues, ends and D or L forms follow the SMILES beside them. *: point of attachment. Gly(N-(3-decanoyloxypropyl)) = CCCCCCCCCC(=O)OCCCNCC(=O)O; N(3-lauroyloxypropyl)Gly = CCCCCCCCCCCC(=O)OCCCNCC(=O)O; Gly(N-3-morpholinopropyl) = O=C(O)CNCCCN1CCOCC1; N(2-ethylhexyl)Gly = CCCCC(CC)CNCC(=O)O; X2 = CCCCCCC(CCCC)CN(CC(=O)[*:2])[*:1]; N(CH(CH2OH)2)Gly = O=C(O)CNC(CO)CO; For = O=C*
PROPERTY_LABEL: mean percent encapsulation of RNA (%)
Give just the number in %; leave the unit off.

COMPOUND	PROPERTY_LABEL	MEASUREMENT_UNITS	REPORTED
CCCCCCCCCC(=O)OCCCN(CC(=O)N(CC(=O)N(CC(=O)N(CCCOC(=O)CCCCCCCCC)CC(=O)N(CC(N)=O)CC(CC)CCCC)CC(CC)CCCC)CC(CC)CCCC)C(=O)CN(CC(CC)CCCC)C(=O)CNC(CO)CO (stereo not drawn) [Compound 5] (H-[N(CH(CH2OH)2)Gly][N(2-ethylhexyl)Gly][Gly(N-(3-decanoyloxypropyl))][N(2-ethylhexyl)Gly][N(2-ethylhexyl)Gly][Gly(N-(3-decanoyloxypropyl))][N(2-ethylhexyl)Gly]-NH2)	mean percent encapsulation of RNA	%	84.8
CCCCCCCCCCCC(=O)OCCCN(CC(=O)N(CC(=O)N(CCCN1CCOCC1)CC(=O)N(CC(=O)N(CCCOC(=O)CCCCCCCCCCC)CC(=O)N(CC(N)=O)CC(CC)CCCC)CC(CC)CCCC)CC(CC)CCCC)C(=O)CN(C=O)CC(CC)CCCC (stereo not drawn) [Compound 80] (For-[N(2-ethylhexyl)Gly][N(3-lauroyloxypropyl)Gly][N(2-ethylhexyl)Gly][Gly(N-3-morpholinopropyl)][N(2-ethylhexyl)Gly][N(3-lauroyloxypropyl)Gly][N(2-ethylhexyl)Gly]-NH2)	mean percent encapsulation of RNA	%	65.7

As a next step, examine the compound that follows.
Task item: Would you please give the reported mean percent encapsulation of RNA of CCCCCCCCCC(=O)OCCCN(CC(=O)N(CC(=O)N(CC(=O)N(CCCOC(=O)CCCCCCCCC)CC(=O)N(CC(N)=O)CC(CCCC)CCCCCC)CC(CC)CCCC)CC(CCCC)CCCCCC)C(=O)CN(CC(CC)CCCC)C(=O)CNC(CO)CO (stereo not drawn) [Compound 61] (H-[N(CH(CH2OH)2)Gly][N(2-ethylhexyl)Gly][Gly(N-(3-decanoyloxypropyl))][X2][N(2-ethylhexyl)Gly][Gly(N-(3-decanoyloxypropyl))][X2]-NH2) with mRNA?
Reply: 95.1

###

System: mRNA
Assay: mRNA encapsulation (modified Quant-iT RiboGreen assay)
Format: physicochemical
Conditions: mRNA; formulation recipe D22
Method: The mRNA concentration and the percentage of encapsulated mRNA were determined using fluorescent-based Quant-iT RiboGreen RNA Reagent Kit (Life Technologies, Waltham, MA) as described previously. […] The fluorescence intensity of mRNA-RiboGreen reagent complex (excitation at 485 nm and emission at 530 nm) was detected using a microplate reader. The ratio of fluorescence without and with Triton X-100 were used to calculate the percentage of encapsulated mRNA. […]
Starred links: 1 amine or outer side, 2 acyl side, 3 side chain; linkers in the order of their positions; H or OH if unused. Non-standard residues stand in square brackets, D forms with d. Residues, ends and D or L forms follow the SMILES beside them. Gly(N-(3-decanoyloxypropyl)) = CCCCCCCCCC(=O)OCCCNCC(=O)O; N(3-lauroyloxypropyl)Gly = CCCCCCCCCCCC(=O)OCCCNCC(=O)O; Gly(N-(CH2)3O-octanoyl) = CCCCCCCC(=O)OCCCNCC(=O)O; N(2-ethylhexyl)Gly = CCCCC(CC)CNCC(=O)O; X1 = CCCCC(CC)CSSCCN(CC(=O)[*:2])[*:1]; N(CH(CH2OH)2)Gly = O=C(O)CNC(CO)CO; NDecylGly = CCCCCCCCCCNCC(=O)O
We begin with a simple list: items and their reported % Encapsulation.
Answer in %, number only, no unit symbol.

Sample records with % Encapsulation:
COMPOUND	REPORTED
CCCCCCCC(=O)OCCCN(CC(=O)N(CCCOC(=O)CCCCCCC)CC(=O)N(CCSSCC(CC)CCCC)CC(=O)N(CCCOC(=O)CCCCCCC)CC(=O)N(CCCOC(=O)CCCCCCC)CC(=O)N(CCSSCC(CC)CCCC)CC(N)=O)C(=O)CNC(CO)CO (stereo not drawn) [Compound 128] (H-[N(CH(CH2OH)2)Gly][Gly(N-(CH2)3O-octanoyl)][Gly(N-(CH2)3O-octanoyl)][X1][Gly(N-(CH2)3O-octanoyl)][Gly(N-(CH2)3O-octanoyl)][X1]-NH2)	89.5
CCCCCCCCCCN(CC(=O)N(CC(=O)N(CCCOC(=O)CCCCCCCCC)CC(N)=O)CC(CC)CCCC)C(=O)CN(CC(CC)CCCC)C(=O)CN(CCCOC(=O)CCCCCCCCC)C(=O)CN(CC(CC)CCCC)C(=O)CNC(CO)CO (stereo not drawn) [Compound 58] (H-[N(CH(CH2OH)2)Gly][N(2-ethylhexyl)Gly][Gly(N-(3-decanoyloxypropyl))][N(2-ethylhexyl)Gly][NDecylGly][N(2-ethylhexyl)Gly][Gly(N-(3-decanoyloxypropyl))]-NH2)	78.1

Task item: Fill in % Encapsulation for record CCCCCCCCCCCC(=O)OCCCN(CC(=O)N(CC(=O)N(CC(=O)N(CCCOC(=O)CCCCCCCCCCC)CC(=O)N(CC(=O)N(CC(N)=O)CC(CC)CCCC)CC(CC)CCCC)CC(CC)CCCC)CC(CC)CCCC)C(=O)CNC(CO)CO (stereo not drawn) [Compound 51] (H-[N(CH(CH2OH)2)Gly][N(3-lauroyloxypropyl)Gly][N(2-ethylhexyl)Gly][N(2-ethylhexyl)Gly][N(3-lauroyloxypropyl)Gly][N(2-ethylhexyl)Gly][N(2-ethylhexyl)Gly]-NH2)
Reply: 80.3
